# Test system: DOHH-2
# EXPERIMENT_NOTES: Anti-proliferative activity, 96 hours
# RUN_CONDITIONS: Homo sapiens, DOHH-2, 96 h
READOUT: IC50 (nM)
Use nM as the unit, but write only the number.

Nc1cccc2c1C(=O)N(C1CCC(=O)NC1=O)C2=O (centres unmarked) [Pomalidomide, reference compound]
1150

Turning now to a further record.
Lab book: IC50 of O=C1CC[C@H](N2C(=O)c3cccc4c(Cc5ccc(CN6CCOCC6)cc5)ccc2c34)C(=O)N1 (single isomer, unassigned) noted as 2.73

###

# Tested on: 8 multiple myeloma cell lines
# EXPERIMENT_NOTES: Growth of 8 multiple myeloma cell lines (CellTiter-Glo, 96 hour)
# Format: cell-based
# RUN_CONDITIONS: all eight multiple myeloma cell lines
pIC50: −log10 of the molar value.
READOUT: pIC50

Entry O=C1CC[C@H](N2C(=O)c3cccc4c(Cc5ccc(CN6CCOCC6)cc5)ccc2c34)C(=O)N1 (single isomer, unassigned) , tested on 8 multiple myeloma cell lines, has a reported pIC50 of > 9.00

###

# Tested on: Maver-1
# EXPERIMENT_NOTES: Anti-proliferative activity, 96 hours
# RUN_CONDITIONS: Homo sapiens, Maver1, 96 h
READOUT: IC50 (nM)
Use nM as the unit, but write only the number.

Lab book: IC50 of O=C1CC[C@H](N2C(=O)c3cccc4c(Cc5ccc(CN6CCOCC6)cc5)ccc2c34)C(=O)N1 (single isomer, unassigned) [Compound 1] noted as 12.1

###

# Tested on: SU-DHL-1
# EXPERIMENT_NOTES: Anti-proliferative activity, 96 hours
# RUN_CONDITIONS: Homo sapiens, SU-DHL-1, 96 h
Quick reference for IC50 among some molecules
Remember to quote the unit after the number.

O=C1CC[C@H](N2C(=O)c3cccc4c(Cc5ccc(CN6CCOCC6)cc5)ccc2c34)C(=O)N1 (single isomer, unassigned) [Compound 1]
0.415 nM

Lab book: IC50 of Nc1cccc2c1C(=O)N(C1CCC(=O)NC1=O)C2=O (centres unmarked) [Pomalidomide, reference compound] noted as 378 nM

###

# System: DL40
# EXPERIMENT_NOTES: Anti-proliferative activity, 96 hours
READOUT: pIC50
Lab note — pIC50 values are minus log10 of concentrations in M.

Lab book: pIC50 of O=C1CC[C@H](N2C(=O)c3cccc4c(Cc5ccc(CN6CCOCC6)cc5)ccc2c34)C(=O)N1 (single isomer, unassigned) [Compound 1] noted as 9.04

###

# EXPERIMENT_NOTES: Plasma PK and interconversion in monkeys
# Type: in vivo
# RUN_CONDITIONS: monkey, Compound 1 60 μg/kg or 100 μg/kg PO, dose normalized to 1 mg/kg
READOUT: AUC(0-inf) (ng·h/mL)
Use ng·h/mL as the unit, but write only the number.

Lab book: AUC(0-inf) of O=C1CC[C@H](N2C(=O)c3cccc4c(Cc5ccc(CN6CCOCC6)cc5)ccc2c34)C(=O)N1 (single isomer, unassigned) noted as 1280

###

# SYSTEM_NAME: cereblon-DDB1 (Homo sapiens)
# Sequence (Q96SW2 whole entry): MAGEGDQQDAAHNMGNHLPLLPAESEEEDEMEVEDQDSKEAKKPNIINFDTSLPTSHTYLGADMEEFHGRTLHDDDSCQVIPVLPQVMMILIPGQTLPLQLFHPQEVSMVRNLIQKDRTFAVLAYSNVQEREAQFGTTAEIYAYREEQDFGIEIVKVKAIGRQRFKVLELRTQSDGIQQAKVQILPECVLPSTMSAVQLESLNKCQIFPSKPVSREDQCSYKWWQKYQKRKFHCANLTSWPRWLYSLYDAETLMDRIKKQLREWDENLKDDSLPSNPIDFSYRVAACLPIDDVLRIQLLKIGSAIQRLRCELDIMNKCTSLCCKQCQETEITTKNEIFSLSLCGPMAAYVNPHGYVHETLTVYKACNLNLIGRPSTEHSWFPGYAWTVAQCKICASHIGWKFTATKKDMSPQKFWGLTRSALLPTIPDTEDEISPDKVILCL
# Sequence (Q16531 whole entry partner): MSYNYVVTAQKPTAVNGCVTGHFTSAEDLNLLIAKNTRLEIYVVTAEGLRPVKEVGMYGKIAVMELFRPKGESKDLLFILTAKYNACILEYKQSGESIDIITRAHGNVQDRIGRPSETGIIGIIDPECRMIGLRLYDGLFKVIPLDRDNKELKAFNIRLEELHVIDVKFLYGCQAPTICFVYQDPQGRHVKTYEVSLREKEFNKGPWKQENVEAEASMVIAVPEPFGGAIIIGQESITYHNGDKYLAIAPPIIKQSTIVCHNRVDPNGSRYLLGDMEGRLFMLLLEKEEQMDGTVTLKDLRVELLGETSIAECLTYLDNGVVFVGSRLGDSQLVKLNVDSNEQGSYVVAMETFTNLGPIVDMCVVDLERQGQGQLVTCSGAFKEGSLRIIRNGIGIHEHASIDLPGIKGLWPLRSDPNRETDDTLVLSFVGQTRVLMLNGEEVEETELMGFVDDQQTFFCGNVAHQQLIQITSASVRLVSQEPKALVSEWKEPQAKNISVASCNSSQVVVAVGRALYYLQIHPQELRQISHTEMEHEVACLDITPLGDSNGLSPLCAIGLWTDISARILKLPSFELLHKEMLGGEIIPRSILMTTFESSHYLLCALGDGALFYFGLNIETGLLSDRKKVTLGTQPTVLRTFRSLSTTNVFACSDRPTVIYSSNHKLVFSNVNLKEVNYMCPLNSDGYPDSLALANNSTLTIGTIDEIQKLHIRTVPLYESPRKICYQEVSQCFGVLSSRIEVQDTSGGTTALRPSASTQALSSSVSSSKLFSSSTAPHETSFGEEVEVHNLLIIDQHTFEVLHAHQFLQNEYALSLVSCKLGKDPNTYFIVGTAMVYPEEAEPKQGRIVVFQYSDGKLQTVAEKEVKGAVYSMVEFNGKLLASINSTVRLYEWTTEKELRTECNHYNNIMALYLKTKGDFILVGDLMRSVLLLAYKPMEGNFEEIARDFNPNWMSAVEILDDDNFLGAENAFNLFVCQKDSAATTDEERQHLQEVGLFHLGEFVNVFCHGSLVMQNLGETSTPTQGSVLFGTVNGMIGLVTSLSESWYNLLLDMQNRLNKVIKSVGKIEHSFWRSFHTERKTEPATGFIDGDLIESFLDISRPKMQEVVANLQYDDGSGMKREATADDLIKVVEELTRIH
READOUT: Kd (pM)
Use pM as the unit, but write only the number.

Entry O=C1CC[C@H](N2C(=O)c3cccc4c(Cc5ccc(CN6CCOCC6)cc5)ccc2c34)C(=O)N1 (single isomer, unassigned) , tested on cereblon-DDB1 (Homo sapiens), has a reported Kd of 900

# credit: patent US20230190760A1
